TARGET_OR_TEST_SYSTEM: Cytochrome P450 3A4 (Homo sapiens)
PROTOCOL: qHTS Assay for Inhibitors and Substrates of Cytochrome P450 3A4 (AID 884); further: nearly all actives have a fitted effect of over 50% in size
COND: recombinant CYP3A4, Luciferin-PPXE luminescence; series mostly up to 57.1 µM
Method: NIH Molecular Libraries Screening Centers Network [MLSCN] NIH Chemical Genomics Center [NCGC] The P450 gene superfamily is involved in the metabolism and clearance of xenobiotics. […] The luciferin is then measured by luminescence after the addition of a luciferase detection reagent. […] Inhibitors and some substrates limit the production of luciferin, and decrease measured luminescence. […]
Results filed as inconclusive are left out. Calls of active or inactive are those of the source. The call rests on the fitted dose curve; in most records, active means well fitted inhibition curve with a large enough effect; inconclusive means small, poorly fitted or top-dose-only effect; inactive means no such curve, though single readings can be large or run the other way.
// allowed return values: t (active), f (inactive)

Example cases with answers are listed next.
[
  {
    "COMPOUND": "c1ccc2c(c1)-c1cccc3c1c-2cc1ccccc13",
    "CLASS_ASSIGNMENT": "f"
  },
  {
    "COMPOUND": "Cc1ccc2oc(-c3ccccc3)c(O)c(=O)c2c1",
    "CLASS_ASSIGNMENT": "f"
  },
  {
    "COMPOUND": "C=C(CC1([C@@H](NP(=O)(c2ccccc2)c2ccccc2)[C@H]2C[C@@H]2CCN(C(=O)OCC)S(=O)(=O)c2ccc(C)cc2)CC1)c1ccccc1",
    "CLASS_ASSIGNMENT": "t"
  },
  {
    "COMPOUND": "C[C@@H](C(=O)Nc1ccc2ccccc2c1)[C@@H]1C[C@@]1(C)[C@@H](NC(=O)OCc1ccccc1)c1ccccc1",
    "CLASS_ASSIGNMENT": "t"
  },
  {
    "COMPOUND": "NC(=O)c1ncn(C2OC(CO)C(O)C2O)c1N (configuration not stated)",
    "CLASS_ASSIGNMENT": "f"
  },
  {
    "COMPOUND": "COC(=O)C1(Cc2ccccc2)C2c3cc(C(=O)N4CCCC4)n(Cc4ccc(OC(F)(F)F)cc4)c3CC2CN1C(=O)c1ccccc1 (configuration not stated)",
    "CLASS_ASSIGNMENT": "t"
  },
  {
    "COMPOUND": "COc1ccc(COC2OC[C@]3(C)[C@H]4C5=C(CN3C(=O)OC(C)(C)C)[C@H](C)C(CO)C(CO)C5CC[C@@H]24)cc1 (some centres not stated)",
    "CLASS_ASSIGNMENT": "t"
  },
  {
    "COMPOUND": "CC1(C)C(=O)C(c2ccccc2)=C2CN3C(=O)N(CCc4ccccc4)C(=O)C3(Cc3ccc(C(F)(F)F)cc3)C=C21 (configuration not stated)",
    "CLASS_ASSIGNMENT": "t"
  }
]

How did this test come out for COc1ccc(-c2cc(=O)c3ccc(O)cc3o2)cc1 ? t

And COC(=O)[C@@]1(Cc2ccc(OC)cc2)[C@H]2c3cc(C(=O)N4CCCC4)n(CCc4c[nH]c5cc(F)ccc45)c3C[C@H]2CN1C(=O)c1ccccc1 ? t

Now consider COC(=O)[C@@]1(Cc2ccc(F)cc2)[C@H]2c3cc(C(=O)N4CCCC4)n(Cc4ccc(C)o4)c3C[C@H]2CN1C(=O)c1ccccc1 . t

Do the same for CC(=O)N[C@@H](c1ccccc1)[C@]1(C)C[C@H]1[C@@H](C)C(=O)Nc1ccc2ccccc2c1 please t

Now the same for COC(=O)[C@@]1(Cc2ccc(F)cc2)[C@H]2c3cc(C(=O)N4CCCC4)n(Cc4ccc(OC(F)(F)F)cc4)c3C[C@H]2CN1C(=O)c1ccccc1 t

Note, next up: COC(=O)[C@@]1(Cc2ccc(F)cc2)[C@H]2c3cc(C(=O)N(C)C)n(Cc4ccc(C)o4)c3C[C@H]2CN1C(=O)c1ccccc1 t

* * *

System: CP237
PROTOCOL: qHTS profiling for inhibitors of Plasmodium falciparum proliferation (AID 504749); further: nearly all actives have a fitted effect of over 60% in size
COND: P. falciparum in erythrocytes, SYBR Green DNA, 72 h; series mostly up to 28.7 µM
Inconclusive results are not listed. The source made the active and inactive calls. Calls come from the whole dose curve; as a rule, active = well fitted inhibition curve with a large enough effect; inconclusive = small, poorly fitted or top-dose-only effect; inactive = flat fitted curve, though single readings scatter.
Would you mind answering with one of these outcomes? TRUE = active, FALSE = inactive

Write down the call the test reported for this molecule. Item: O=C1C(I)=CC(=C(c2cc(I)c(O)c(I)c2)c2ccccc2C(=O)O)C=C1I FALSE

And the next one, CC12C=CC(=O)C=C1[C@@H](F)CC1C2C(O)CC2(C)C1CC[C@]2(O)C(=O)CO (some centres undefined) ? FALSE

Then this molecule: CC(=O)O[C@]1(C(C)=O)CCC2C3CCC4=CC(=O)CCC4(C)C3(F)C(O)CC21C (some centres undefined) FALSE

Proceed to CCCCC(=O)OCC(=O)[C@]1(O)Cc2c(O)c3c(c(O)c2[C@H](OC2CC(NC(=O)C(F)(F)F)C(O)C(C)O2)C1)C(=O)c1c(OC)cccc1C3=O (some centres undefined) TRUE

* * *

Tested on: TAB109
PROTOCOL: qHTS profiling for inhibitors of Plasmodium falciparum proliferation (AID 504749); further: nearly all actives have a fitted effect of over 60% in size
COND: P. falciparum in erythrocytes, SYBR Green DNA, 72 h; series mostly up to 28.7 µM
Inconclusive results are not listed. Active and inactive are the calls of the source. The call rests on the fitted dose curve; in most records, active means well fitted inhibition curve with a large enough effect; inconclusive means small, poorly fitted or top-dose-only effect; inactive means flat fitted curve, though single readings scatter.
Select the correct class. Options are Y (active), N (inactive) and nothing else.

Consider the worked cases shown below.
[
  {
    "COMPOUND": "CC1(Cn2ccnn2)[C@H](C(=O)O)N2C(=O)C[C@H]2S1(=O)=O (stereo partly drawn)",
    "CLASS_ASSIGNMENT": "N"
  },
  {
    "COMPOUND": "Cc1ccccc1N1C(=O)c2cc(N)ccc2N/C1=C\\F",
    "CLASS_ASSIGNMENT": "N"
  },
  {
    "COMPOUND": "C=C(CC[C@@H](C)[C@H]1CCC2[C@]1(C)CC[C@]13C[C@@]14CCC(OC(=O)/C=C/c1ccc(O)c(OC)c1)C(C)(C)[C@@H]4CC[C@@]23C)C(C)C (stereo partly drawn)",
    "CLASS_ASSIGNMENT": "N"
  },
  {
    "COMPOUND": "C[C@@H](O)[C@@H]1C(=O)N2C(C(=O)O)=C([C@H]3CCCO3)S[C@H]12",
    "CLASS_ASSIGNMENT": "N"
  },
  {
    "COMPOUND": "CCCCCOC(=O)Nc1nc(=O)n(C2O[C@H](C)[C@@H](O)[C@@H]2O)cc1F (stereo partly drawn)",
    "CLASS_ASSIGNMENT": "N"
  }
]

Hi, sorry to bother you, what did the test record for OCCOC[C@H]1O[C@H](OCCO)[C@H](OCCO)[C@@H](OCCO)[C@@H]1OCCO (tested in a mixture with another compound) ? N

* * *

PROTOCOL: AP1 Signaling Pathway (AID 357);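 further: ME-180 reporter cells stimulated with EGF at its EC50 level; on the % scale 0 is the no-effect control and ±100 the full control effect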
COND: ME-180 AP-1-bla reporter, EGF-induced, beta-lactamase ratio, 5 h; at 17.2 µM (top of the series) unless noted
Records with an inconclusive call do not appear.
READOUT: activity change, negative = inhibition (%)
Answers are plain numbers, in %.

Example molecules with recorded activity change, negative = inhibition:
[
  {
    "MOLECULE": "COc1ccc(/C(O)=C2/C(=O)C(=O)N(CCCN(C)C)C2c2ccc(C)o2)cc1Cl (centres undefined)",
    "activity change, negative = inhibition (%)": 9.2
  },
  {
    "MOLECULE": "COc1cccc(C2CC(c3ccccc3Cl)n3nc(N)nc3N2)c1 (centres undefined)",
    "activity change, negative = inhibition (%)": -5.25
  }
]

// batch mode: one activity change, negative = inhibition value per listed entry
1. Cn1c(=O)c2c(nc(NCc3ccc4c(c3)OCO4)n2Cc2ccccc2F)n(C)c1=O
2. Clc1ccccc1CSc1nnc(-c2ccco2)c(-c2ccco2)n1
3. CC(=O)Oc1ccccc1C1OCCN1C(C)=O (centres undefined)
4. CCCC1Cc2c(sc3nc(SC)nc(N)c23)CO1 (centres undefined)

[-24.1, 10.8, 14.2, -3.09]

Parameters: items (list). Returns: activity change, negative = inhibition for each item.
1. O/N=C(\c1ccc2c(c1)OCCO2)C1CCCCC1
2. C=CCN=C(C)C1=C(O)CCC1=O

[-6.69, 23.8]

# batch size: 4; output activity change, negative = inhibition per entry
1. CCOCCSc1nc2c(c(=O)[nH]c(=O)n2C)n1CCCc1ccccc1
2. Cc1cc(=O)oc(C)c1C(=O)NC12CC3CC(CC(C3)C1)C2
3. CC(C)(C)C1=Nn2c(nnc2C2CCCCC2)SC1
4. CCCCNC(=O)C(C#N)c1nc2ccccc2nc1N1CCN(Cc2ccc3c(c2)OCO3)CC1 (centres undefined)

1: 3.98; 2: -5.66; 3: -2.23; 4: -18.8

* * *

PROTOCOL: Stat Signaling Pathway (AID 446);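 further: ME-180 cervical cancer cells given 40 pM IL-6 alongside compound; SIE-controlled beta-lactamase reporter measured as 460/530 nm FRET emission ratio; on the % scale 0 is the no-effect control and ±100 the full control effect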
COND: ME-180 (cervical carcinoma) SIE beta-lactamase reporter, IL-6 stimulated, 5 h; at 17.2 µM (top of the series) unless noted
Results filed as inconclusive are left out.
READOUT: activity, negative = inhibition (%)
Answers are plain numbers, in %.

# count of solved cases: 5
[
  {
    "MOLECULE": "CCCCCOC(=O)Cc1c(C)nc(-c2ccccc2)[nH]c1=O",
    "RESULT_UNITS": "%",
    "OBSERVED_MEASUREMENT": 4.57
  },
  {
    "MOLECULE": "Cc1ccc(C2/C(=C(/O)c3cnn(-c4ccccc4)c3C)C(=O)C(=O)N2CCN2CCOCC2)o1 (stereo not given)",
    "RESULT_UNITS": "%",
    "OBSERVED_MEASUREMENT": -14.9
  },
  {
    "MOLECULE": "CC1(C)Cc2c(sc(NC(=O)c3ccc(Br)o3)c2C#N)CO1",
    "RESULT_UNITS": "%",
    "OBSERVED_MEASUREMENT": -9.34
  },
  {
    "MOLECULE": "CCC(c1c(C)n(C)n(-c2ccccc2)c1=O)c1c(C)n(C)n(-c2ccccc2)c1=O",
    "RESULT_UNITS": "%",
    "OBSERVED_MEASUREMENT": 10.1
  },
  {
    "MOLECULE": "CCOC(=O)c1c(N)sc2c1CCC1C(=O)N(C3CCCCC3)C(=O)C21 (stereo not given)",
    "RESULT_UNITS": "%",
    "OBSERVED_MEASUREMENT": -6.61
  }
]

Could you report activity, negative = inhibition for every entry in the following list?
1. Cc1cc(C)n(-c2nnc(C)n2/N=C/c2ccccc2F)n1
2. CN(C)CCCN(CCCNC(=O)/C=N/O)Cc1ccccc1
3. CC(=O)OCC(=O)[C@@]1(O)CC[C@H]2[C@@H]3CCC4=CC(=O)CC[C@]4(C)[C@H]3[C@@H](O)C[C@@]21C

[18, 17.4, -11.6]

Look up activity, negative = inhibition for the entries below, preserving their order.
1. COc1cccc(OC)c1-c1nn2c(-c3ccccc3Cl)nnc2s1
2. CSc1nnc(N(CCC#N)CCC#N)s1

-3.22
2.15
